Hi there, I'd appreciate the recorded IC50 for every entry that follows.
Molecular target: human SOS1 (loading of human K-Ras^G12C-GDP with fluorescent GTP-analog) (Homo sapiens)
Assay: Biochemical assay 3: K-Ras^G12C activation assay by hSOS1 (HTRF)
Conditions: no GTP; read-out: Assay 3 (KRAS-Activation by SOS no GTP) activity expressed as IC50
Give bare numbers, in µM.

Solved entries:
COMPOUND: COCCOc1cc2c(N[C@H](C)c3cccc(-c4cn[nH]c4)c3)nc(C)nc2cc1OC
SYSTEM_TESTED: human SOS1 (loading of human K-Ras^G12C-GDP with fluorescent GTP-analog) (Homo sapiens)
EXPERIMENTAL_RESULT: 0.753
--
COMPOUND: COc1cc2nc(C)nc(NC(C)c3cccc(Oc4ccccc4)c3)c2cc1OC (single isomer, unassigned; enantiomer 1) [Example 228]
SYSTEM_TESTED: human SOS1 (loading of human K-Ras^G12C-GDP with fluorescent GTP-analog) (Homo sapiens)
EXPERIMENTAL_RESULT: 1.43

Hi team, please reply with IC50 for each item in this list.
1. CNCc1ccccc1-c1cccc([C@@H](C)Nc2nc(C)nc3cc(OC)c(OC)cc23)c1
2. COc1cc2nc(C)nc(NC(C)c3cccc4sc(C)cc34)c2cc1OC (stereo not shown)

Ans:
1: 0.189; 2: 0.547

###

Target: human SOS1 (loading of human K-Ras^G12C-GDP with fluorescent GTP-analog) (Homo sapiens)
Assay: Biochemical assay 3: K-Ras^G12C activation assay by hSOS1 (HTRF)
Conditions: no GTP; read-out: Assay 3 (KRAS-Activation by SOS no GTP) activity expressed as IC50
ENDPOINT: IC50 (µM)
Give bare numbers, in µM.

Solved entries:
COMPOUND: COc1cc2nc(C)nc(N[C@H](C)c3cccc(-c4c(C)n[nH]c4C)c3)c2cc1OC [Example 334]
EXPERIMENTAL_RESULT: 1.41
//
COMPOUND: COc1cc2nc(C)nc(N[C@H](C)c3cccc(-c4cncc(C)c4)c3)c2cc1OC [Example 41]
EXPERIMENTAL_RESULT: 1.67

Hi team, please reply with IC50 for each item in this list.
1. C=Cc1ccccc1-c1ccc(C(C)Nc2nc(C)nc3cc(OC)c(OC)cc23)s1 (centres unmarked) [Example 248]
2. C=C(C)c1ccc([C@@H](C)Nc2nc(C)nc3cc(OC)c(OC)cc23)cc1 [Example 203]
3. COc1cc2nc(C)nc(N[C@H](C)c3cccc(C#N)c3)c2cc1OC [Example 194]
4. CCOc1cc2c(N[C@H](C)c3cccc(-c4cnn(CC)c4)c3)nc(C)nc2cc1OC [Example 356]
5. COc1cc2nc(C)nc(N[C@H](C)c3cccc(-c4ccccc4S(=O)(=O)N(C)C)c3)c2cc1OC [Example 101]
6. COc1cc2nc(C)nc(N[C@@H](C)c3ccc(-c4ccc(C(C)=O)s4)s3)c2cc1OC (racemic) [Example 162]

Ans:
1. 8.43
2. 3.36
3. 2.43
4. 0.933
5. 1.8
6. 16

###

Target: human SOS1 (loading of human K-Ras^G12C-GDP with fluorescent GTP-analog) (Homo sapiens, UniProt Q07889)
Assay: Biochemical assay 3: K-Ras^G12C activation assay by hSOS1 (HTRF)
Conditions: no GTP; read-out: Assay 3 (KRAS-Activation by SOS no GTP) activity expressed as IC50
Label Yes when IC50 < 1000 nM; otherwise No.

MOLECULE: COc1cc2nc(C)nc(NC(C)c3ccc(-c4ccccc4CN4CCC4)s3)c2cc1OC (centres unmarked)
LABEL: Yes

MOLECULE: COc1cc2nc(C)nc(NC(C)c3ccc(C4=CCOCC4)s3)c2cc1OC (centres unmarked)
LABEL: No

MOLECULE: COc1cc2nc(C)nc(N[C@H](C)c3cccc(-c4c(C)noc4C)c3)c2cc1OC
LABEL: No

MOLECULE: C/C=C(\C)c1ccc([C@H](C)Nc2nc(C)nc3cc(OC)c(OC)cc23)s1 (racemic)
LABEL: No

MOLECULE: COc1cc2nc(C)nc(NC(C)c3ccc(-c4cc(Cl)ccc4CN)s3)c2cc1OC (centres unmarked)
LABEL: Yes

Q: Hello, is IC50 of the following molecule strictly smaller than 1000 nM? COc1cc2nc(C)nc(NC(C)c3ccc(-c4ccccc4CN[C@H]4CCN(C)C4=O)s3)c2cc1OC (some centres unmarked)
Ans: Yes

Q: Hello, is IC50 of the following molecule strictly smaller than 1000 nM? COc1cc2nc(C)nc(N[C@H](C)c3cccc(-c4cccc(C(F)(F)F)c4)c3)c2cc1OC
Ans: No

Q: Hello, is IC50 of the following molecule strictly smaller than 1000 nM? COc1cc2nc(C)nc(NC(C)c3ccc(-c4ccccc4CN4CCC(O)C4)s3)c2cc1OC (centres unmarked)
Ans: Yes

Q: Hello, is IC50 of the following molecule strictly smaller than 1000 nM? COc1cc2nc(C)nc(N[C@H](C)c3cccc(-c4cccc(N5CCOCC5)c4)c3)c2cc1OC
Ans: No

Q: Hello, is IC50 of the following molecule strictly smaller than 1000 nM? COc1cc2nc(C)nc(NC(C)c3cc(-c4ccccc4CN)cs3)c2cc1OC (centres unmarked)
Ans: Yes

Q: Hello, is IC50 of the following molecule strictly smaller than 1000 nM? COc1cc2nc(C)nc(N[C@H](C)c3cccc(-c4ccccc4CN)c3)c2cc1OC
Ans: Yes

Q: Hello, is IC50 of the following molecule strictly smaller than 1000 nM? COc1cc2nc(C)nc(NC(C)c3ccc(-c4ccccc4CN4CCCC(C(N)=O)C4)s3)c2cc1OC (centres unmarked)
Ans: Yes

Q: Hello, is IC50 of the following molecule strictly smaller than 1000 nM? COc1cc2nc(C)nc(N[C@@H](C)c3ccc(-c4ccc5c(c4)CCO5)s3)c2cc1OC (racemic)
Ans: No

Q: Hello, is IC50 of the following molecule strictly smaller than 1000 nM? COc1cc2nc(C)nc(NC(C)c3cc(-c4ccn(CCN5CCCC5)n4)cs3)c2cc1OC (centres unmarked)
Ans: No

Q: Hello, is IC50 of the following molecule strictly smaller than 1000 nM? COc1cc2nc(C)nc(N[C@H](C)c3cccc(-c4cnn(C)c4)c3)c2cc1OC
Ans: No

Q: Hello, is IC50 of the following molecule strictly smaller than 1000 nM? CCCOc1ccccc1-c1cccc([C@@H](C)Nc2nc(C)nc3cc(OC)c(OC)cc23)c1
Ans: No

Q: Hello, is IC50 of the following molecule strictly smaller than 1000 nM? COc1cc2nc(C)nc(NC(C)c3cc(F)cc4[nH]ncc34)c2cc1OC (centres unmarked)
Ans: No

Q: Hello, is IC50 of the following molecule strictly smaller than 1000 nM? COc1cc2nc(C)nc(NC(C)c3ccc(-c4ccccc4CN4CC(O)C4)s3)c2cc1OC (centres unmarked)
Ans: Yes

Q: Hello, is IC50 of the following molecule strictly smaller than 1000 nM? COc1cc2nc(C)nc(NC(C)c3ccc(-c4ccc(F)cc4CNCc4nccn4C)s3)c2cc1OC (centres unmarked)
Ans: Yes

###

Target: human SOS1 (nucleotide exchange of K-Ras^G12C) (Homo sapiens, UniProt Q07889)
Assay: Biochemical assay 2: K-Ras^G12C activation assay by hSOS1 at high GTP concentration (HTRF)
Details: E-notation values; unit inferred; 50 μM GTP; read-out: Assay 2 (KRAS-Activation, high GTP) IC50
ENDPOINT: IC50 (µM)
Answers are plain numbers, in µM.

Solved entries:
COMPOUND: Cc1nc(NC(C)c2ccc(-c3ccccc3CN(C)C)s2)c2cc(N)ccc2n1 (stereo not drawn)
SYSTEM_TESTED: human SOS1 (nucleotide exchange of K-Ras^G12C) (Homo sapiens, UniProt Q07889)
UNITS_TEXT: µM
IC50: 0.187
//
COMPOUND: Cc1nc(NC(C)c2ccc(Br)s2)c2cc(N3CCC(N(C)C)C3)ccc2n1 (stereo not drawn)
SYSTEM_TESTED: human SOS1 (nucleotide exchange of K-Ras^G12C) (Homo sapiens, UniProt Q07889)
UNITS_TEXT: µM
IC50: 1.24
//
COMPOUND: Cc1nc(N[C@H](C)c2cccc(Cl)c2)c2cc(C3CC3)ccc2n1
SYSTEM_TESTED: human SOS1 (nucleotide exchange of K-Ras^G12C) (Homo sapiens, UniProt Q07889)
UNITS_TEXT: µM
IC50: 1.06
//
COMPOUND: Cc1nc(NC(C)c2ccc(Br)s2)c2cc(N3CCCC3)ccc2n1 (stereo not drawn)
SYSTEM_TESTED: human SOS1 (nucleotide exchange of K-Ras^G12C) (Homo sapiens, UniProt Q07889)
UNITS_TEXT: µM
IC50: 3.74
//
COMPOUND: Cc1nc(NC(C)c2ccc(-c3ccccc3CN(C)C)s2)c2cc(NC(=O)N(C)C)ccc2n1 (stereo not drawn)
SYSTEM_TESTED: human SOS1 (nucleotide exchange of K-Ras^G12C) (Homo sapiens, UniProt Q07889)
UNITS_TEXT: µM
IC50: 0.576

Hi team, please reply with IC50 for each item in this list.
1. CCCCC(O)c1ccccc1-c1ccc(C(C)Nc2nc(C)nc3cc(OC)c(OC)cc23)s1 (stereo not drawn)
2. COc1cc2nc(C)nc(NC(C)c3ccc(-c4ccc(Br)cc4CN(C)C)s3)c2cc1OC (stereo not drawn)
3. COc1cc2nc(C)nc(NC(C)c3ccc(-c4cc(Cl)ccc4CNC(=O)OC(C)(C)C)s3)c2cc1OC (stereo not drawn)

Ans:
1: 9.75; 2: 0.0665; 3: 1.66

Hi team, please reply with IC50 for each item in this list.
1. COc1cc2nc(C)nc(NC(C)c3ccc(-c4ccccc4CNC4CC4)s3)c2cc1OC (stereo not drawn)
2. COc1cc2nc(C)nc(NC(C)c3ccc(-c4cccc(Cl)c4CN)s3)c2cc1OC (stereo not drawn)
3. COc1cc2nc(C)nc(NC(C)c3ccc(-c4ccc(C(F)(F)F)cc4CN(C)C)s3)c2cc1OC (stereo not drawn)
4. Cc1nc(NC(C)c2ccc(Br)s2)c2cc(N3CCN(Cc4cccnc4)CC3)ccc2n1 (stereo not drawn)
5. Cc1nc(NC(C)c2ccc(-c3ccccc3CN(C)C)s2)c2cc(NCCN3CCOCC3)ccc2n1 (stereo not drawn)

Ans:
1: 0.352; 2: 0.209; 3: 0.329; 4: 1.41; 5: 0.0701

# IC50 (compound: COc1cc2nc(C)nc(NC(C)c3ccc(-c4ccc(O)nc4)s3)c2cc1OC (stereo not drawn) ) is 1.06
